- test.target: NET (Rattus norvegicus, UniProt Q9WTR4)
- Construct: Cortex from rat brain was collected and homogenised
- Sequence (Q9WTR4 1-597): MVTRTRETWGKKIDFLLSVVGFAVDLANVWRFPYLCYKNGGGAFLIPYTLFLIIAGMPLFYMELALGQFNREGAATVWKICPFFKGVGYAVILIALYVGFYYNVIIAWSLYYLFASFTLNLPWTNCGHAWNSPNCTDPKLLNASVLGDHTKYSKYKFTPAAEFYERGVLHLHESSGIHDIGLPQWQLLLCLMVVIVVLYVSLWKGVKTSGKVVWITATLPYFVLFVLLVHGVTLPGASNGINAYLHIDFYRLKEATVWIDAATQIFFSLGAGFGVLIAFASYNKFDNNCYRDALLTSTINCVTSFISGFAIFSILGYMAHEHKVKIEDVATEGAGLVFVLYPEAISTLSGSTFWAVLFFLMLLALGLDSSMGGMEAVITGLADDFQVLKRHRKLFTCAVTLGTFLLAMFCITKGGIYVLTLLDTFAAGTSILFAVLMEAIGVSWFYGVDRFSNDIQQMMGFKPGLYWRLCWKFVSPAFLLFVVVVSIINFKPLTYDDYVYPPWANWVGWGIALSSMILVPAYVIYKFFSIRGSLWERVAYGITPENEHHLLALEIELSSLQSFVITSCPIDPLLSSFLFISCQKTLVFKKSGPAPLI
- protocol.description: In vitro determination of NET reuptake inhibition ([3H]Nixosetine binding, rat brain cortex membranes)
Decision: IC50 beneath 500 nM gives yes (1); IC50 meeting or exceeding 500 nM gives no (0).

These solved cases illustrate the format of a correct answer.
• CN(C)C[C@H]1C[C@@H]2c3ccccc3Oc3ccc(F)cc3[C@H]2N1 [compound 17] = yes (1)
• COCCN1[C@@H](CN(C)C)C[C@@H]2c3ccccc3Cc3ccc(F)cc3[C@H]21 [compound 40] = yes (1)
• O=C1NC[C@@H]2C[C@@H]3c4ccccc4Cc4ccc(F)cc4[C@H]3N12 [compound 15] = no (0)
• CN1C[C@@H]2C[C@@H]3c4ccccc4Cc4ccc(F)cc4[C@H]3N2C1=O [compound 16] = no (0)
• CC(=O)N1[C@@H](CN(C)C)C[C@@H]2c3ccccc3Cc3ccc(F)cc3[C@H]21 [36b] = no (0)

Req: Criterion: IC50 strictly below 500 nM. Is it met by CN(C)C[C@H]1C[C@@H]2c3ccccc3Cc3ccc(F)cc3[C@H]2N1 [37a] ?
Resp: yes (1)

Req: Criterion: IC50 strictly below 500 nM. Is it met by COCC(=O)N1[C@@H](CN(C)C)C[C@@H]2c3ccccc3Cc3ccc(F)cc3[C@H]21 [compound 10] ?
Resp: no (0)

Req: Criterion: IC50 strictly below 500 nM. Is it met by CN(C)C[C@H]1C[C@@H]2c3ccccc3Cc3ccc(F)cc3[C@H]2N1CCO [compound 39] ?
Resp: yes (1)

Req: Criterion: IC50 strictly below 500 nM. Is it met by CN(C)C[C@@H]1C[C@@H]2c3ccccc3Cc3ccc(F)cc3[C@H]2S1(=O)=O [compound 22] ?
Resp: no (0)
